# System: HL-60
# Procedure text: NCI tumour cell line growth inhibition, 48 h
Active and inactive are the calls of the source. Cut-off read from the data, not from the text of the source: active = GI50 up to about 1.1 µM and inactive = higher. *1 amine or outer side, *2 acyl side, *3 side chain or, on linkers, in order; H or OH if unused. Where a SMILES comes first, the peptide text is derived from it. Bridges are numbered along the chain shown (N, C = ends). Roman numbers before positions name the chains, in order. [ ]: non-standard residue; d: D form. Actinocin(9to1) = Cc1c2oc3c(C)ccc(C(=O)[*:1])c3nc-2c(C(=O)[*:2])c(N)c1=O; NMeV = CN[CH](C(=O)O)C(C)C; Sar = CNCC(=O)O
Outcome field: choose from Y for active, N for inactive

Please let me know the test result on file for CC1OC1C(=O)P(=O)(O)O (stereo unspecified) .
N

Please let me know the test result on file for O=c1oc(-c2ccc(O)c(O)c2)cc2cccc(O)c12 [THUNBERGINOL A] .
N

Please let me know the test result on file for CCNC1CC(C(C)(C)NCC)CC=C1C (stereo unspecified) .
N

Please let me know the test result on file for Cc1c2oc3c(C)ccc(C(=O)NC4C(=O)NC(C(C)O)C(=O)N5CCCC5C(=O)N(C)CC(=O)N(C)C(C(C)C)C(=O)OC4C)c3nc-2c(C(=O)NC2C(=O)NC(C(C)O)C(=O)N3CCCC3C(=O)N(C)CC(=O)N(C)C(C(C)C)C(=O)OC2C)c(N)c1=O (stereo unspecified) (I: TTP[Sar][NMeV] / II: TTP[Sar][NMeV]; ester I:1-I:C, II:1-II:C; linker I:N-II:N via Actinocin(9to1); configuration not given here) .
Y

Please let me know the test result on file for "CCN(CC)CCn1nc2c3c(c(NCCN)ccc31)Sc1cc(O)ccc1-2" .
Y

Please let me know the test result on file for "O=C(O)C(=C\c1ccc2c(c1)OCO2)/C(=C/c1ccc2c(c1)OCO2)C(=O)O" .
N

The measured values listed here are drawn from ChEMBL document CHEMBL1201862.
